Test: label from the status in PepcDB records

SEQ_STRING	protein production
MSYFYKHCLKFSLVGLLGLLSVQLDARSFVDGDLDIQKFSYEDSLLKKGDPNGVHKVQVRDYKGKMQEAEIHSEIRIALKPGVKKEVKKGKIYSAQINDGMCYAFRMLQTGDNTTGLDSKEFPKQSREKKGRVITLIGKGEVPYLILETDCQVGDIAKISLVGNFDGTGFLTEYKFKDAKPIY	failed
MSKAQKRKRLNKYDGESKTPANKSTVDGGNPYPTLLRPTAEECRDVRDALLSLHGFPPEFANYRRQRLRSFSAVDDHDTQCNLKSETLNETEEESVLDGLVKILLSQNTTESNSQRAFASLKATFPKWDDVLNAESKSIENAIRCGGLAPKKAVCIKNILNRLQNERGRLCLEYLRGLSVEEVKTELSHFKGVGPKTVSCVLMFNLQHNDFPVDTHVFEIAKALGWVPKTADRNKTYVHLNRKIPDELKFDLNCLLYTHGKICSNCKKNVAKPKAKVASPDDCPLVGFYDLIV	failed

----------
Assay: label from the status in PepcDB records
MEASUREMENT_NAME: protein production

SEQ_STRING	MEASUREMENT_NAME	RESULT
MSLTKYHDLKNKVIVIAGGIKNLGALTAKTFALESVNLVLHYHQAKDSDTANKLKDELEDQGAKVALYQSDLSNEEEVAKLFDFAEKEFGKVDIAINTVGKVLKKPIVETSEAEFDAMDTINNKVAYFFIKQAAKHMNPNGHIITIATSLLAAYTGFYSTYAGNKAPVEHYTRAASKELMKQQISVNAIAPGPMDTSFFYGQETKESTAFHKSQAMGNQLTKIEDIAPIIKFLTTDGWWINGQTIFANGGYTTREGHHHHHH	protein production	not failed
MARNKGWVGATCCFLLFTVVFLSQKIEVSEVAVNDGLRGSPGMLLFLLPGMVACFLSARGRLLYPLFGALAAMPVCLLLLHLWNTPMRSFWQELAYVMSAVFWCVLGAMGVLCLRSLYRRYLR	protein production	not failed
MEHDLNDMMVFLAVVETGSFTLAADRLGMPKANVSRKVSRLEKNLAVTLLERSTRSQHLTEAGRRYLAHCKRIHEELDLATASVCELFHSYTGELKIGASVASGQQVLRPALGKFMRQYPDLKVQLNLVNRRVDFIEEGFDVVIRIGQLNDSMLIAKKLGAINRKIFASPSYLAKQGNPDKVEQLTEHQLLIMNPLNISGNKDLKLPLTSTDHETFTLDCQPRLLVDDFSMLKQAIVDGLGIGVLPDYMCRQEVASGQLVNILPDWGMAKVDIYALYPKHRAKIPKVKAFIDFVSELYGEVL	protein production	not failed

----------
Experiment: label from the status in PepcDB records

SEQ_STRING	protein production
MCDRHQKLIRATDKPNFFGIDHYGFPEAGEHPADPPGYYPEYFSSERFQRLGYHVEELRGGFYWVTSGGYDAAFVVTSDGVVAIDAPPTIGENMLAAIEDVTDKPVTHLIYSHWHTDHIGAASVFGPNVEIVAHDITKELLERFPDPNRPVPTVTFDKDHLLVVGGVTLELSYKGENHCPGNIFIYAPAQKVLTVIDIVSPGSATFMHCDASQNITGWYEAQKQLMEYEFDFLVAGHHMKYGTPETVAASIEYFQDVLDGAQAAVDRFSRSDALVSILEGAGWDQVFSGTENWINSMANFATKYVLEKKSSNGQLWSERLAGVTTQTKYHAYTVLESIRLERPRPNYRLRGENPPPFLT	failed
MIMTVLRQQPRAAGLVLGLIAANFLAWCWALQAFGDSGALMAASLLAWGYGLRHAVDADHIAAIDNVTRKMMQQGRRPFAVGAWFSLGHSSIVVLASAAIAATATAFSTQMSWLHDTGSVIGTAVSALFLLAMAFINLVILRSVWRSFRAWKRGEPVSDEIVSGGGVMSWLFGKTFRLISRSWQMYLVGFLFGLGFDTATEIGVLGISAAGASSGISVWSIMVFPALFASGMALVDTLDNVLMVGAYGWAFSKPQRKLYYNMTITGTSVVVALFIGGLEALGLLMDKFALSGGIWRWVGALNDNLGDAGFVVVGLFVACWALSVLNYRWRGYDNLAR	failed
LKRDFIILGNGPRLQNSTYQCKHCDSKLQSTAELTSHLNIHNEEFQKRAKRQERRKQLLSKQKYADGAFADFKQE	not failed
ACTQPSDWVPPAKNDALVIALKKVIGGRLSDAFHIRDKLQRRDAIAAVKDDVIQQLAGRLEVEGWNLAELLKEFGELEYRTMRDALLDTKVRIDGRSLEAVRP	not failed
MIGDMNELLLKSVEVLPPLPDTVSKLRKYVSEANSNIETMKVAEIISSDPLMTAKLLQLANSPYYGFTREITTINQVITLLGVGNIINIVMADSIRDNFKIDVSPYGLNTQNFLKTCNEEATFIANWLNDEDKKLSHLLVPCAMLLRLGIVIFSNFLIQNHKDKDFLAFLNKNENLALAENEFLGVDHISFLGFLLHRWNFDDVLIESICFVRTPHAAREKVKKSAYALAITDHLFAPHDGSSPFNAKAAVALLKEAKTQGINFDLNNLLSKLPNKAKENLNKED	not failed
PLKEQKVINTANITTNSKLDLAEYENGLMNIAKEQFDTENHVLQLNQYIPEKLVDELVAKVKAPVLTNIIEQDYFGKQNSNELSLSGVMIGLAMSSSVSNEEAMSKGTEVANQLIEAIHKNDKYNKSPITFAIFKQESTSSLKNGTYIASATVQKNDTNIGNWNAIEEKAYSYPSDEFTQAHGEDNTKIDDFAKEMKGFSPGDFIPVNAKVSYKKNQMDTLNMNIVIKYNGKTELMALTQLAAQIMLEQLPKDAKVQLQIKSENKIEAIVIKEKNSDKPFVSFL	not failed
MSEPVFPTPEAAEDAFYAAFEARSLDDMMAVWARDDHVACIHPLAAPLNGRAAVAAGWRSMFGAAGRFRLQVKAVHEIRQADHVIRIVDEFLTIGDETAPRPAILATNVYRREADGWRMVLHHASPLQVGAKAGADTPPVVFH	not failed

Attribution: a protein production outcome set (Wang et al. 2014)
